MEASUREMENT KIND: melting point

The examples below pair each entry with its known result.
COc1cc(-c2nc(NC(=O)c3cc4cc(C)cc(C)c4n3CC(=O)O)sc2CCC2CCCCC2)c(OC)cc1Cl    241 °C
CC(=O)N1c2ccccc2Sc2c1ccc(O)c2Cl    214 °C
CCCc1nc2c(N)nc3ccc(-c4cccc(S(C)(=O)=O)c4)cc3c2s1    252 to 255 °C
CCOC(=O)Cn1c(=O)c(=O)[nH]c2cc(Br)ccc21    282 to 283 °C
CN(Cc1cc(C(F)(F)F)cc(C(F)(F)F)c1)C(=O)c1c(Cl)nc2ccccc2c1-c1ccccc1    147 to 148 °C
CN1C(=O)CN(c2ccccc2)NC1=O    207 to 213 °C

Short answer for `CCCCOc1cccc(Cn2[nH]c(N)cc2=O)c1` : melting point was 110 °C

Summary for this compound, `CC(=O)C(=NNc1ccccc1)C(=O)Nc1ccccc1` : melting point is 96 to 97 °C

Lookup result for COc1ccc(C(=O)C2CCC(C)(C(=O)O)C2(C)C)c(OC)c1 (stereo unspecified) ; measured melting point: 145 °C

Value of measured melting point for the entry `COc1ccc(N2C(=O)C(C)(C)N(c3ccc(Cc4ccccc4)cc3)C2=S)cc1` : 162 °C

Form field melting point, entry COC(c1c(Cl)sc(Cl)c1Cl)C(C)N(OC)C(=O)c1cn(C)nc1C(F)F (stereo unspecified) : 113 to 116 °C

Lab note: measured melting point of `O=C(NC(=O)c1ccc(F)cc1Cl)Nc1ccc(C(F)(F)F)cc1F` was 194 °C

In plain terms, `Cn1c(Cn2nc(CC(=O)O)c3ccccc3c2=O)nc2ccccc21` has a documented melting point of 230 °C

Memo: OC(c1ccccc1F)c1cc(C(F)(F)F)nc2c(C(F)(F)F)cccc12 (stereo unspecified) , reported melting point: 120 to 121 °C

So, `O=C(Nc1cc(Cl)c(O)c(Cl)c1)c1ccccc1O` ? Its melting point was 217 to 219 °C

Measured melting point, `CCOCc1nc2c(c(C)c(C)n3nnnc23)n1CCNS(C)(=O)=O` : 218 to 222 °C

* * *

MEASUREMENT KIND: melting point

Value of melting point reported for the compound Cc1cc(SC2=C(O)CC(CCc3ccsc3CO)(C(C)C)OC2=O)c(C(C)(C)C)cc1N (configuration not stated) is 107 to 115 °C

// melting point value for `N#Cc1ccc(N(Cc2ccc(OS(N)(=O)=O)c(Cl)c2)n2cnnc2)cc1-c1ccoc1` : 154 to 155 °C

Looking up `CCOC(=O)C(=CNc1nc(C)c(C)s1)C(=O)OCC` , I see its melting point listed as 82 to 83.5 °C

Please fill in: melting point reported for `C#CCN(C(=O)n1oc(C)c(Cl)c1=O)c1ccc(C)cc1` = 79 °C

Looking up `CCc1cc(COc2nn(Cc3ccccc3)cc2C=O)ccc1OCc1nc(-c2ccco2)oc1C` , I found its melting point recorded as 128 to 129 °C

* * *

Measured melting point of individual entries

CC(Br)C(=C(C#N)C#N)c1ccccc1 (stereo not drawn)    103 to 104 °C

The recorded melting point for entry `O=C(O)C(CC(c1ccc(OCc2ccc3ccccc3n2)cc1)c1ccc(OCc2ccc3ccccc3n2)cc1)=NO` equals 104 to 108 °C

For `CCOP(=O)(CC=CC(=O)O)OCC` the compound record lists melting point as 73 to 75 °C

Data origin: a melting point compilation (Tetko et al.; mined from patent text by program, amines drawn as free bases though some values may be those of a salt)
